molecular target: SARS-CoV-2 RdRp complex nsp12/nsp8/nsp7 (Severe acute respiratory syndrome coronavirus 2, UniProt P0DTD1); assay: biochemical; conditions: read-out: Inhibition Rate (%)
Record form. Attribute: inhibition at 50 µM. Fill in for each entry.
Numbers only; they are read as %.

// inhibition at 50 µM lookup, molecule = Nc1ccc(S(=O)(=O)N2CCN(C(=O)c3cc(O)c(O)c(O)c3)CC2C(=O)NCc2cccs2)cc1 (stereo not shown) , result: 73

// inhibition at 50 µM lookup, molecule = Nc1ccc(S(=O)(=O)N2CCN(C(=O)c3cc(O)c(O)c(O)c3)CC2C(=O)Nc2ccccc2)cc1 (stereo not shown) , result: 85

// inhibition at 50 µM lookup, molecule = COc1ccc(CNC(=O)C2CN(S(=O)(=O)c3ccc(N)cc3)CCN2C(=O)c2cc(O)c(O)c(O)c2)cc1 (stereo not shown) , result: 81

// inhibition at 50 µM lookup, molecule = Nc1ccc(S(=O)(=O)N2CCN(C(=O)c3cc(O)c(O)c(O)c3)CC2C(=O)NCc2cccc3ccccc23)cc1 (stereo not shown) , result: 83

* * *

propertyMeasured: melting point

// melting point lookup, compound = Nc1ccc(S(=O)(=O)N2CCN(C(=O)c3cc(O)c(O)c(O)c3)C(C(=O)NCc3ccco3)C2)cc1 (stereo not drawn) [DF-36] , result: 181 to 184 °C

// melting point lookup, compound = Nc1ccc(S(=O)(=O)N2CCN(C(=O)c3cc(O)c(O)c(O)c3)CC2C(=O)NCc2cccs2)cc1 (stereo not drawn) [DF-68] , result: 213 to 216 °C

// melting point lookup, compound = Nc1ccc(S(=O)(=O)N2CCN(C(=O)c3cc(O)c(O)c(O)c3)CC2C(=O)NCc2cccc3ccccc23)cc1 (stereo not drawn) [DF-67] , result: 189 to 192 °C

* * *

molecular target: Dengue virus RdRp (DENV NS5) (Dengue virus type 3, UniProt Q6YMS4); assay: Fluorescent plate DENV RdRp assay; format: biochemical; conditions: purified recombinant Dengue virus RdRp; average ± SD of 2 independent experiments
Sequence (Q6YMS4 2491-3390 limits assumed): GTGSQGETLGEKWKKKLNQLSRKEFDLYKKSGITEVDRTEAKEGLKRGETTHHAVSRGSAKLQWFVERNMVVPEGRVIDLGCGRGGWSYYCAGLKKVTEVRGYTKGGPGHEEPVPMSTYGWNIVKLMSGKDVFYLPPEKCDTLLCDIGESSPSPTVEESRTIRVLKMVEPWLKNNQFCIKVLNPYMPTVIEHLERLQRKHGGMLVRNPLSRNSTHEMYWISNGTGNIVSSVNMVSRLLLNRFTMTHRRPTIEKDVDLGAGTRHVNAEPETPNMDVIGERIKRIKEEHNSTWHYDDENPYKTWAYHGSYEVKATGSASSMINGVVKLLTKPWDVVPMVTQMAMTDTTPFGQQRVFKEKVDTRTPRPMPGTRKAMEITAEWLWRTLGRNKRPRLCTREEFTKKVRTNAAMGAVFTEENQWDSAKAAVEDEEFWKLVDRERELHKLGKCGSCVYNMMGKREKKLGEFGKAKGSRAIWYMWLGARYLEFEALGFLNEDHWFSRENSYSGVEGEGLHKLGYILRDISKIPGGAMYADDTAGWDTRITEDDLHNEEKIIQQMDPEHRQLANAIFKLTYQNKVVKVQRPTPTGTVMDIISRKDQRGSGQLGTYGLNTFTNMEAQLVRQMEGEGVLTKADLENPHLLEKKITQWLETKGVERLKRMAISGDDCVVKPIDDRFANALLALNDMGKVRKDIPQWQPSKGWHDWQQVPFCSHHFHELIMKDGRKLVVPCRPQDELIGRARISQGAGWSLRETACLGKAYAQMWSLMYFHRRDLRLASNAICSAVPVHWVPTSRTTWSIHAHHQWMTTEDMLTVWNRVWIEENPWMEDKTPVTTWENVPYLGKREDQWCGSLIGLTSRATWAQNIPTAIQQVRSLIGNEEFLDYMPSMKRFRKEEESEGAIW
propertyMeasured: IC50 (µM)
Numbers only; they are read as µM.

// IC50 lookup, compound = N#Cc1ccc(S(=O)(=O)N2CCN(C(=O)c3cc(O)c(O)c(O)c3)C(C(=O)NCc3ccc(-c4ccccc4)cc3)C2)cc1 (centres unmarked) , result: 4.8

// IC50 lookup, compound = Nc1ccc(S(=O)(=O)N2CCN(C(=O)c3cc(O)c(O)c(O)c3)C(C(=O)NCc3ccc(-c4ccccc4)cc3)C2)cc1 (centres unmarked) , result: 14

* * *

tested on: DENV3; assay: DENV3 cell-based qRT-PCR antiviral assay in A549 cells; details: DENV3/A549
propertyMeasured: EC50 (µM)
Numbers only; they are read as µM.

// EC50 lookup, compound = N#Cc1ccc(S(=O)(=O)N2CCN(C(=O)c3cc(O)c(O)c(O)c3)C(C(=O)NCc3ccc(-c4ccccc4)cc3)C2)cc1 (centres unmarked) , result: 21.5

// EC50 lookup, compound = Nc1ccc(S(=O)(=O)N2CCN(C(=O)c3cc(O)c(O)c(O)c3)C(C(=O)NCc3ccc(-c4ccccc4)cc3)C2)cc1 (centres unmarked) , result: 51.9

* * *

test: in vitro; details: human
Record form. Attribute: CC50. Fill in for each entry.

// CC50 lookup, compound = N#Cc1ccc(S(=O)(=O)N2CCN(C(=O)c3cc(O)c(O)c(O)c3)C(C(=O)NCc3ccc(-c4ccccc4)cc3)C2)cc1 (centres unmarked) , result: > 100 µM

// CC50 lookup, compound = Nc1ccc(S(=O)(=O)N2CCN(C(=O)c3cc(O)c(O)c(O)c3)C(C(=O)NCc3ccc(-c4ccccc4)cc3)C2)cc1 (centres unmarked) , result: > 100 µM

* * *

target: SARS-CoV-2 RdRp complex nsp12/nsp8/nsp7 (Severe acute respiratory syndrome coronavirus 2); assay: biochemical; conditions: seven concentrations 0.4 to 100 μM; mean ± SD of two independent experiments; read-out: IC50 against SARS-CoV-2 RdRp
Record form. Attribute: IC50. Fill in for each entry.
Numbers only; they are read as µM.

// IC50 lookup, compound = Nc1ccc(S(=O)(=O)N2CCN(C(=O)c3cc(O)c(O)c(O)c3)C(C(=O)NCc3ccc(-c4ccccc4)cc3)C2)cc1 (centres unmarked) , result: 9.2

// IC50 lookup, compound = N#Cc1ccc(S(=O)(=O)N2CCN(C(=O)c3cc(O)c(O)c(O)c3)C(C(=O)NCc3ccc(-c4ccccc4)cc3)C2)cc1 (centres unmarked) , result: 22

* * *

Record form. Attribute: inhibition at 50 µM. Fill in for each entry.
target: SARS-CoV-2 RdRp complex nsp12/nsp8/nsp7 (Severe acute respiratory syndrome coronavirus 2); experiment: biochemical; conditions: read-out: Inhibition Rate (%)
Numbers only; they are read as %.

// inhibition at 50 µM lookup, compound = CN(C(=O)C1CN(C(=O)c2cc(O)c(O)c(O)c2)CCN1S(=O)(=O)c1ccc(N)cc1)c1ccccc1 (centres unmarked) , result: 75

// inhibition at 50 µM lookup, compound = CC(C)(C)OC(=O)N1CCC2(CCN(C(=O)C3CN(C(=O)c4cc(O)c(O)c(O)c4)CCN3S(=O)(=O)c3ccc(N)cc3)C2)C1 (centres unmarked) , result: 70

// inhibition at 50 µM lookup, compound = Nc1ccc(S(=O)(=O)N2CCN(C(=O)c3cc(O)c(O)c(O)c3)C(C(=O)NCc3ccco3)C2)cc1 (centres unmarked) , result: 87

// inhibition at 50 µM lookup, compound = Nc1ccc(S(=O)(=O)N2CCN(C(=O)c3cc(O)c(O)c(O)c3)CC2C(=O)NCc2ccc(-c3ccccc3)cc2)cc1 (centres unmarked) , result: 72

// inhibition at 50 µM lookup, compound = COc1ccc(CNC(=O)C2CN(C(=O)c3cc(O)c(O)c(O)c3)CCN2S(=O)(=O)c2ccc(N)cc2)cc1 (centres unmarked) , result: 80

* * *

assay: in vitro; details: African green monkey
propertyMeasured: CC50 (µM)
Numbers only; they are read as µM.

// CC50 lookup, compound = O=c1cc(-c2ccccc2)oc2cc(O)c(O)c(O)c12 [Baicalein, reference compound] , result: 86

// CC50 lookup, compound = CCC(CC)COC(=O)[C@H](C)N[P@](=O)(OC[C@H]1O[C@@](C#N)(c2ccc3c(N)ncnn23)[C@H](O)[C@@H]1O)Oc1ccccc1 [Remdesivir, reference compound] , result: 10.1

* * *

propertyMeasured: melting point

// melting point lookup, compound = CC(C)(C)OC(=O)N1CCC2(CCN(C(=O)C3CN(C(=O)c4cc(O)c(O)c(O)c4)CCN3S(=O)(=O)c3ccc(N)cc3)C2)C1 (stereo not shown) , result: 192 to 195 °C

// melting point lookup, compound = Nc1ccc(S(=O)(=O)N2CCN(C(=O)c3cc(O)c(O)c(O)c3)CC2C(=O)NCc2ccc(-c3ccccc3)cc2)cc1 (stereo not shown) , result: 192 to 195 °C

// melting point lookup, compound = COc1ccc(CNC(=O)C2CN(C(=O)c3cc(O)c(O)c(O)c3)CCN2S(=O)(=O)c2ccc(N)cc2)cc1 (stereo not shown) , result: 202 to 205 °C

// melting point lookup, compound = Nc1ccc(S(=O)(=O)N2CCN(C(=O)c3cc(O)c(O)c(O)c3)CC2C(=O)Nc2ccccc2)cc1 (stereo not shown) , result: 173 to 176 °C

// melting point lookup, compound = COc1ccc(CNC(=O)C2CN(S(=O)(=O)c3ccc(N)cc3)CCN2C(=O)c2cc(O)c(O)c(O)c2)cc1 (stereo not shown) , result: 192 to 195 °C

// melting point lookup, compound = Nc1ccc(S(=O)(=O)N2CCN(C(=O)c3cc(O)c(O)c(O)c3)C(C(=O)NCc3ccc(-c4ccccc4)cc3)C2)cc1 (stereo not shown) , result: 193 to 196 °C

// melting point lookup, compound = CN(C(=O)C1CN(C(=O)c2cc(O)c(O)c(O)c2)CCN1S(=O)(=O)c1ccc(N)cc1)c1ccccc1 (stereo not shown) , result: 172 to 175 °C
